Test system: Mus musculus
experiment_description: Inhibition of ex vivo MCH-ADO binding in mice 6 hours after 30mg/kg peroral dose
Assay type: functional
applied_conditions: po
quantity_name: inhibition in vivo at 30 mg/kg (%)

* CN1CCN(CCCN(c2nc3cc(Cl)c(Cl)cc3[nH]2)[C@@H]2CC[C@]3(c4cccc(C#N)c4)C[C@H]23)CC1 | 97
* CN1CCN(CCCN(c2nc3cc(F)c(C(F)(F)F)cc3[nH]2)[C@@H]2CC[C@]3(c4ccc(C#N)cc4)C[C@H]23)CC1 | 100
* CN1CCN(CCCN(c2nc3cc(F)c(F)cc3[nH]2)[C@@H]2CC[C@]3(c4cccc(C#N)c4)C[C@H]23)CC1 | 75

----------
Test system: Mus musculus
experiment_description: Inhibition of ex vivo MCH-ADO binding in mice 24 hours after 30 mg/kg peroral dose
Type: functional
applied_conditions: route oral
Quick rule: inhibition in vivo at 30 mg/kg of at least 50% means Satisfied, below that means Not satisfied.

• CN1CCN(CCCN(c2nc3cc(F)c(F)cc3[nH]2)[C@@H]2CC[C@]3(c4cccc(C#N)c4)C[C@H]23)CC1 = Not satisfied
• CS(=O)(=O)N1CCC(CN(c2nc3cc(F)c(F)cc3[nH]2)[C@@H]2CCC3(c4cccc(C#N)c4)C[C@@H]3C2)CC1 (single isomer, unassigned) = Not satisfied
• CS(=O)(=O)N1CCC(CN(c2nc3cc(Cl)c(Cl)cc3[nH]2)[C@@H]2CCC3(c4cccc(C#N)c4)C[C@@H]3C2)CC1 (single isomer, unassigned) = Not satisfied
• CN1CCN(CCCN(c2nc3cc(F)c(Cl)cc3[nH]2)[C@@H]2CC[C@]3(c4cccc(C#N)c4)C[C@H]23)CC1 = Satisfied
• CN1CCN(CCCN(c2nc3cc(F)c(C(F)(F)F)cc3[nH]2)[C@@H]2CC[C@]3(c4ccc(C#N)cc4)C[C@H]23)CC1 = Satisfied
• CN1CCN(CCCN(c2nc3cc(F)c(F)cc3[nH]2)[C@@H]2CCC3(c4cccc(C#N)c4)C[C@@H]3C2)CC1 (single isomer, unassigned) = Not satisfied
• CN1CCN(CCCN(c2nc3cc(F)c(Cl)cc3[nH]2)[C@@H]2CC[C@]3(c4ccc(C#N)cc4)C[C@H]23)CC1 = Satisfied
• CN1CCN(CCCN(c2nc3cc(Cl)c(Cl)cc3[nH]2)[C@@H]2CCC3(c4cccc(C#N)c4)C[C@@H]3C2)CC1 (single isomer, unassigned) = Satisfied

----------
tested_target: Melanin-concentrating hormone receptor 2 (Homo sapiens) (UniProt Q969V1)
Sequence (Q969V1 whole entry): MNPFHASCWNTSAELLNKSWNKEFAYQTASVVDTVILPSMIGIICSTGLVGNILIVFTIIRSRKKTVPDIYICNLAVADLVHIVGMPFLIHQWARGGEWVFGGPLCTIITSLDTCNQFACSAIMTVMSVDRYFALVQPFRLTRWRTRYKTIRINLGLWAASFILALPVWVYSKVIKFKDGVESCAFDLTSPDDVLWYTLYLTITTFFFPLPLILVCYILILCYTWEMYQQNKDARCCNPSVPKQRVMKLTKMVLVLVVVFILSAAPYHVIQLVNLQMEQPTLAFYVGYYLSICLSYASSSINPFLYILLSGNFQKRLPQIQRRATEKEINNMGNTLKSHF
experiment_description: Binding activity against human MCH-R2
Active and inactive are the calls of the source. No cut-off for these calls is given here.
quantity_name: inhibition

- CN1CCN(CCCN(c2nc3cc(Cl)c(Cl)cc3[nH]2)[C@@H]2CCC3(c4cccc(C#N)c4)C[C@@H]3C2)CC1 (single isomer, unassigned): inactive
- CO/N=C/c1cccc([C@]23CC[C@@H](N(CCCN4CCN(C)CC4)c4nc5cc(F)c(F)cc5[nH]4)C[C@H]2C3)c1: inactive
- CN1CCN(CCCN(c2nc3cc(F)c(F)cc3[nH]2)[C@@H]2CCC3(c4cccc(C=O)c4)C[C@@H]3C2)CC1 (single isomer, unassigned): inactive
- CN1CCN(CCCN(c2nc3cc(F)c(F)cc3[nH]2)[C@@H]2CCC3(c4cccc(CN5CCOCC5)c4)C[C@@H]3C2)CC1 (single isomer, unassigned): inactive
- CN1CCN(CCCN(c2nc3cc(F)c(F)cc3[nH]2)[C@@H]2CCC3(c4cccc(CO)c4)C[C@@H]3C2)CC1 (single isomer, unassigned): inactive
- CN1CCN(CCCN(c2nc3cc(F)c(F)cc3[nH]2)[C@@H]2CC[C@]3(c4cccc(C#N)c4)C[C@H]23)CC1: inactive
